// kon lookup, one value per entry
Target: T1, mouse 129 SIRP-α D1 domain (mouse (129 strain), UniProt P97797 32-150)
T1 construct: also called m129
T1 chain: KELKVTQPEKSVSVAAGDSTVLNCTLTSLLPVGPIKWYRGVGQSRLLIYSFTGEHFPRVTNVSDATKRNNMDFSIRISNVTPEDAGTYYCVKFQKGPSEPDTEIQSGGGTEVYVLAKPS
Assay: SPR, ProteOn, antibody on chip
ASSAY ENDPOINT: kon (M⁻¹ s⁻¹)

1) AB25c (antibody, mouse IgG2a, V domains shown, Full-length mouse IgG2a) VH: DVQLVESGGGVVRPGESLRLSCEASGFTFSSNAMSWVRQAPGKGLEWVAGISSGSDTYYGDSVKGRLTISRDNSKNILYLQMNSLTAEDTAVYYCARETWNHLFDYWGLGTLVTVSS VL: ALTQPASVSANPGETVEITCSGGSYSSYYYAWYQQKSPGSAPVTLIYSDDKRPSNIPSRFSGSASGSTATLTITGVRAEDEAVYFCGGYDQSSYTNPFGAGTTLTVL = 352000
2) AB27c (antibody, mouse IgG2a, V domains shown, Full-length mouse IgG2a) VH: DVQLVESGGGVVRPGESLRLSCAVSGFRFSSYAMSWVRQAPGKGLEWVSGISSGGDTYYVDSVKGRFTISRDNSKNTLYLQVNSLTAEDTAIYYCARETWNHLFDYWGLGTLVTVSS VL: ALTQPASVSADLGETVKITCSGGDSSSHYYGWYQQKSPGSAPVTVIYSDDERPSDIPSRFSGSASGSTATLTITGVRVEDEAIYYCGAYDGSTYANTFGAGTTLTVL = 207000
3) AB3c (antibody, mouse IgG2a, V domains shown, Full-length mouse IgG2a) VH: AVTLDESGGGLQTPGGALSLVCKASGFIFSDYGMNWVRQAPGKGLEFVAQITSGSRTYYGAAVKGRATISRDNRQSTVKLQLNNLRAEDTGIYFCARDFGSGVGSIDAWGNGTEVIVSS VL: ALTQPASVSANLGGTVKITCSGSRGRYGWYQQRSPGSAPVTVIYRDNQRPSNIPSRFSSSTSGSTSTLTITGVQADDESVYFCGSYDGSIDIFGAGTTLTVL = 534000
4) AB21c (antibody, mouse IgG2a, V domains shown, Full-length mouse IgG2a) VH: DVQLVESGGGVVRPGESLRLSCAASGFTFSSNAMSWVRQAPGKGLEWLAGISAGGSDTYYPASVKGRFTISRDNSKNTLYLQMNTLTAEDTAVYYCARETWNHLFDYWGLGTLVTVSS VL: ALTQPASVSANPGETVKIACSGGDYYSYYYGWYQQKAPGSALVTVIYSDDKRPSDIPSRFSGSASGSTATLTITGVRAEDEAVYYCGGYDYSTYANAFGAGTTLTVL = 563000
5) AB66c (antibody, mouse IgG2a, V domains shown, Full-length mouse IgG2a) VH: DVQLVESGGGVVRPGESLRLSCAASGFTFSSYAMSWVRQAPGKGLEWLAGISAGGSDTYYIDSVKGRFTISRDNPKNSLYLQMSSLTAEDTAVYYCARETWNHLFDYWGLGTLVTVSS VL: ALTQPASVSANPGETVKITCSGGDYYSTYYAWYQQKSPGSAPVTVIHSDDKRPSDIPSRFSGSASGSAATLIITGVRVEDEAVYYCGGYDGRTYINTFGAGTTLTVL = 207000
